Reference source for all entries: paper PMC8469489

# procedure.details: Pharmacokinetics of ginsenosides after single oral RGE after amoxicillin with or without repeated LAB treatment
# condition.set: male, ICR, mouse, plasma, po, 2 g/kg, Cmax, Amoxicillin + LAB; single oral RGE 2 g/kg

{"compound": "CC(C)=CCC[C@](C)(O[C@@H]1O[C@H](CO[C@@H]2O[C@H](CO)[C@@H](O)[C@H](O)[C@H]2O)[C@@H](O)[C@H](O)[C@H]1O)[C@H]1CC[C@]2(C)[C@@H]1[C@H](O)C[C@@H]1[C@@]3(C)CC[C@H](O[C@@H]4O[C@H](CO)[C@@H](O)[C@H](O)[C@H]4O[C@@H]4O[C@H](CO)[C@@H](O)[C@H](O)[C@H]4O)C(C)(C)[C@@H]3CC[C@]12C [GRb1, 20(S)-ginsenosides Rb1]", "Cmax, ng/mL": 26.2}

====

# procedure.details: Pharmacokinetics of ginsenosides after single oral RGE with or without amoxicillin treatment
# Assay type: in vivo, mice
# condition.set: Control; single oral RGE 2 g/kg; plasma
# Protocol: Male ICR mice (7-weeks-year-old, 30–35 g) were purchased from Samtako Co. (Osan, Kyunggi-do, Korea). Animals were acclimatized for 1 week in an animal facility at Kyungpook National University. Food and water were available ad libitum. Before blood sampling, mice were anesthetized using isoflurane (isoflurane vaporizer to 2% with oxygen flow at 0.8 L/min) for 5 min.

{"compound": "CC(C)=CCC[C@](C)(O[C@@H]1O[C@H](CO)[C@@H](O)[C@H](O)[C@H]1O)[C@H]1CC[C@]2(C)[C@@H]1[C@H](O)C[C@@H]1[C@@]3(C)CC[C@H](O[C@@H]4O[C@H](CO)[C@@H](O)[C@H](O)[C@H]4O[C@@H]4O[C@H](CO)[C@@H](O)[C@H](O)[C@H]4O)C(C)(C)[C@@H]3CC[C@]12C", "MRT [h]": 21.3}
{"compound": "CC(C)=CCC[C@](C)(O[C@@H]1O[C@H](CO)[C@@H](O)[C@H](O)[C@H]1O)[C@H]1CC[C@]2(C)[C@@H]1[C@H](O)C[C@@H]1[C@@]3(C)CC[C@H](O)C(C)(C)[C@@H]3CC[C@]12C [CK, 20(S)-compound K]", "MRT [h]": 13.9}
{"compound": "CC(C)=CCC[C@](C)(O[C@@H]1O[C@H](CO[C@@H]2O[C@@H](CO)[C@H](O)[C@H]2O)[C@@H](O)[C@H](O)[C@H]1O)[C@H]1CC[C@]2(C)[C@@H]1[C@H](O)C[C@@H]1[C@@]3(C)CC[C@H](O[C@@H]4O[C@H](CO)[C@@H](O)[C@H](O)[C@H]4O[C@@H]4O[C@H](CO)[C@@H](O)[C@H](O)[C@H]4O)C(C)(C)[C@@H]3CC[C@]12C", "MRT [h]": 19.9}
{"compound": "CC(C)=CCC[C@](C)(O[C@@H]1O[C@H](CO[C@@H]2OC[C@H](O)[C@H](O)[C@H]2O)[C@@H](O)[C@H](O)[C@H]1O)[C@H]1CC[C@]2(C)[C@@H]1[C@H](O)C[C@@H]1[C@@]3(C)CC[C@H](O[C@@H]4O[C@H](CO)[C@@H](O)[C@H](O)[C@H]4O[C@@H]4O[C@H](CO)[C@@H](O)[C@H](O)[C@H]4O)C(C)(C)[C@@H]3CC[C@]12C", "MRT [h]": 19.4}
